- System: LG0703-F948-PDC complex spheroid viability
- test: Anticancer human tumor LG0703-F948-PDC patient-derived lung adenocarcinoma cell line growth inhibition
- study conditions: second compound 3.16 µM; first compound 0.949 µM; hits give low values
readout kind: viability, T/C (%)
Give just the numeric value; % need not be written.

Summary: CCN(c1cc(-c2ccc(CN3CCOCC3)cc2)cc(C(=O)NCc2c(C)cc(C)[nH]c2=O)c1C)C1CCOCC1 + NC1CCC(NC2CC2c2ccccc2)CC1 , LG0703-F948-PDC complex spheroid viability, viability, T/C = 121

Summary: NS(=O)(=O)OCC1CC(n2ccc3c(NC4CCc5ccccc54)ncnc32)CC1O (centres undefined) + NC1CCC(NC2CC2c2ccccc2)CC1 , LG0703-F948-PDC complex spheroid viability, viability, T/C = 32.4

Summary: NS(=O)(=O)OCC1CC(n2ccc3c(NC4CCc5ccccc54)ncnc32)CC1O (centres undefined) + NC1CC1c1ccc(-c2cccc(O)c2)cc1 , LG0703-F948-PDC complex spheroid viability, viability, T/C = 32.6

Summary: CCN(c1cc(-c2ccc(CN3CCOCC3)cc2)cc(C(=O)NCc2c(C)cc(C)[nH]c2=O)c1C)C1CCOCC1 + NC1CC1c1ccc(-c2cccc(O)c2)cc1 , LG0703-F948-PDC complex spheroid viability, viability, T/C = 99.7

---

- System: LG0703-F948-PDC complex spheroid viability
- test: Anticancer human tumor LG0703-F948-PDC cell line growth inhibition;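 also: spheroids exposed to agents for seven days before readout; 100% = DMSO vehicle control wells as normalization base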
- study conditions: second compound 10 µM; first compound 1 µM; hits give low values
Give viability, T/C for every item shown.
Give just the numeric value; % need not be written.

get_value(item= CC1COCCN1c1cc(C2(S(C)(=N)=O)CC2)nc(-c2ccnc3[nH]ccc23)n1 (centres undefined) + NC1CCC(NC2CC2c2ccccc2)CC1 , readout=viability, T/C) returns 88.1

get_value(item= CC1COCCN1c1cc(-c2ccnn2C)c2ccnc(-c3ccn[nH]3)c2n1 (centres undefined) + NC1CC1c1ccc(-c2cccc(O)c2)cc1 , readout=viability, T/C) returns 8.21

get_value(item= CC1(C)CCC(CN2CCN(c3ccc(C(=O)NS(=O)(=O)c4ccc(NCC5CCOCC5)c([N+](=O)[O-])c4)c(Oc4cnc5[nH]ccc5c4)c3)CC2)=C(c2ccc(Cl)cc2)C1 + NC1CCC(NC2CC2c2ccccc2)CC1 , readout=viability, T/C) returns 99.1

get_value(item= CC1COCCN1c1cc(C2(S(C)(=N)=O)CC2)nc(-c2ccnc3[nH]ccc23)n1 (centres undefined) + NC1CC1c1ccc(-c2cccc(O)c2)cc1 , readout=viability, T/C) returns 79.7

get_value(item= COc1ccc([C@@H](O)c2cc(-c3ncnc4cc(N5CCOCC5)ccc34)c(F)cc2Cl)nn1 + NC1CC1c1ccc(-c2cccc(O)c2)cc1 , readout=viability, T/C) returns 57.9

get_value(item= COc1cc(Nc2ncc3c(n2)-c2ccc(Cl)cc2C(c2c(F)cccc2OC)=NC3)ccc1C(=O)O + NC1CC1c1ccc(-c2cccc(O)c2)cc1 , readout=viability, T/C) returns 6.35

get_value(item= O=C(c1cc(Cc2n[nH]c(=O)c3ccccc23)ccc1F)N1CCN(C(=O)C2CC2)CC1 + NC1CC1c1ccc(-c2cccc(O)c2)cc1 , readout=viability, T/C) returns 107

get_value(item= O=C(C=Cn1cnc(-c2cc(C(F)(F)F)cc(C(F)(F)F)c2)n1)NNc1cnccn1 + NC1CCC(NC2CC2c2ccccc2)CC1 , readout=viability, T/C) returns 23.5

get_value(item= Nc1ncn(C2CC(O)C(CO)O2)c(=O)n1 (centres undefined) + NC1CCC(NC2CC2c2ccccc2)CC1 , readout=viability, T/C) returns 122

get_value(item= CC(C)c1c(-c2ccccc2)nc2c(C#N)c[nH]n2c1=O + NC1CCC(NC2CC2c2ccccc2)CC1 , readout=viability, T/C) returns 105

get_value(item= CC1COCCN1c1cc(-c2ccnn2C)c2ccnc(-c3ccn[nH]3)c2n1 (centres undefined) + NC1CCC(NC2CC2c2ccccc2)CC1 , readout=viability, T/C) returns 11.5

get_value(item= CC(C)c1c(-c2ccccc2)nc2c(C#N)c[nH]n2c1=O + NC1CC1c1ccc(-c2cccc(O)c2)cc1 , readout=viability, T/C) returns 85.3

get_value(item= O=C(c1cc(Cc2n[nH]c(=O)c3ccccc23)ccc1F)N1CCN(C(=O)C2CC2)CC1 + NC1CCC(NC2CC2c2ccccc2)CC1 , readout=viability, T/C) returns 109

get_value(item= COc1ccc([C@@H](O)c2cc(-c3ncnc4cc(N5CCOCC5)ccc34)c(F)cc2Cl)nn1 + NC1CCC(NC2CC2c2ccccc2)CC1 , readout=viability, T/C) returns 52.2

---

- Tested on: LG0703-F948-PDC complex spheroid viability
- test: Anticancer human tumor LG0703-F948-PDC cell line growth inhibition;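 also: spheroids exposed to agents for seven days before readout; 100% = DMSO vehicle control wells as normalization base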
- study conditions: second compound 3.16 µM; first compound 0.0316 µM; hits give low values
readout kind: viability, T/C (%)
Give just the numeric value; % need not be written.

Summary: CC[C@@]1(O)C(=O)OCc2c1cc1n(c2=O)Cc2cc3c(CN(C)C)c(O)ccc3nc2-1 + NC1CCC(NC2CC2c2ccccc2)CC1 , LG0703-F948-PDC complex spheroid viability, viability, T/C = 98.4

Summary: COc1cc(Nc2ncc3c(n2)-c2ccc(Cl)cc2C(c2c(F)cccc2OC)=NC3)ccc1C(=O)O + NC1CCC(NC2CC2c2ccccc2)CC1 , LG0703-F948-PDC complex spheroid viability, viability, T/C = 94.4

Summary: COc1cc(Nc2ncc3c(n2)-c2ccc(Cl)cc2C(c2c(F)cccc2OC)=NC3)ccc1C(=O)O + NC1CC1c1ccc(-c2cccc(O)c2)cc1 , LG0703-F948-PDC complex spheroid viability, viability, T/C = 94.2

Summary: CC1COCCN1c1cc(C2(S(C)(=N)=O)CC2)nc(-c2ccnc3[nH]ccc23)n1 (stereo not drawn) + NC1CC1c1ccc(-c2cccc(O)c2)cc1 , LG0703-F948-PDC complex spheroid viability, viability, T/C = 96

Summary: CC(C)CC(NC(=O)C(Cc1ccccc1)NC(=O)c1cnccn1)B(O)O (stereo not drawn) + NC1CCC(NC2CC2c2ccccc2)CC1 , LG0703-F948-PDC complex spheroid viability, viability, T/C = 0.03

Summary: Nc1ncn(C2CC(O)C(CO)O2)c(=O)n1 (stereo not drawn) + NC1CC1c1ccc(-c2cccc(O)c2)cc1 , LG0703-F948-PDC complex spheroid viability, viability, T/C = 99.8

Summary: CC1COCCN1c1cc(-c2ccnn2C)c2ccnc(-c3ccn[nH]3)c2n1 (stereo not drawn) + NC1CC1c1ccc(-c2cccc(O)c2)cc1 , LG0703-F948-PDC complex spheroid viability, viability, T/C = 55.7

Summary: CC1COCCN1c1cc(-c2ccnn2C)c2ccnc(-c3ccn[nH]3)c2n1 (stereo not drawn) + NC1CCC(NC2CC2c2ccccc2)CC1 , LG0703-F948-PDC complex spheroid viability, viability, T/C = 77

Summary: CC1(C)CCC(CN2CCN(c3ccc(C(=O)NS(=O)(=O)c4ccc(NCC5CCOCC5)c([N+](=O)[O-])c4)c(Oc4cnc5[nH]ccc5c4)c3)CC2)=C(c2ccc(Cl)cc2)C1 + NC1CC1c1ccc(-c2cccc(O)c2)cc1 , LG0703-F948-PDC complex spheroid viability, viability, T/C = 104

Summary: CC(C)c1c(-c2ccccc2)nc2c(C#N)c[nH]n2c1=O + NC1CC1c1ccc(-c2cccc(O)c2)cc1 , LG0703-F948-PDC complex spheroid viability, viability, T/C = 97.7

Summary: COc1ccc([C@@H](O)c2cc(-c3ncnc4cc(N5CCOCC5)ccc34)c(F)cc2Cl)nn1 + NC1CCC(NC2CC2c2ccccc2)CC1 , LG0703-F948-PDC complex spheroid viability, viability, T/C = 112

Summary: CC[C@@]1(O)C(=O)OCc2c1cc1n(c2=O)Cc2cc3c(CN(C)C)c(O)ccc3nc2-1 + NC1CC1c1ccc(-c2cccc(O)c2)cc1 , LG0703-F948-PDC complex spheroid viability, viability, T/C = 81.9

Summary: O=C(C=Cn1cnc(-c2cc(C(F)(F)F)cc(C(F)(F)F)c2)n1)NNc1cnccn1 + NC1CCC(NC2CC2c2ccccc2)CC1 , LG0703-F948-PDC complex spheroid viability, viability, T/C = 48.3

---

- System: LG0703-F948-PDC complex spheroid viability
- test: Anticancer human tumor LG0703-F948-PDC cell line growth inhibition;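 also: spheroids exposed to agents for seven days before readout; 100% = DMSO vehicle control wells as normalization base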
- study conditions: second compound 1 µM; first compound 10 µM; hits give low values
readout kind: viability, T/C (%)
Give just the numeric value; % need not be written.

get_value(item= CC1COCCN1c1cc(C2(S(C)(=N)=O)CC2)nc(-c2ccnc3[nH]ccc23)n1 (stereo not drawn) + NC1CCC(NC2CC2c2ccccc2)CC1 , readout=viability, T/C) returns 23.8

get_value(item= CC(C)c1c(-c2ccccc2)nc2c(C#N)c[nH]n2c1=O + NC1CCC(NC2CC2c2ccccc2)CC1 , readout=viability, T/C) returns 89.1

get_value(item= O=C(c1cc(Cc2n[nH]c(=O)c3ccccc23)ccc1F)N1CCN(C(=O)C2CC2)CC1 + NC1CC1c1ccc(-c2cccc(O)c2)cc1 , readout=viability, T/C) returns 86
